The reader will find reported IC50 values listed item by item below.
System: SSTRs, NCI-H69 membranes
Assay: [125I]SST-14 binding to NCI-H69 cell membranes (SSTR affinity)
Design: species or system human
Conditions: inhibition of [125I]SST-14 binding; two-site fit; read-out: IC50 Values for Uncomplexed Compounds, NCI-H69 (first value)
Where a SMILES comes first, the peptide text is derived from it. [ ]: non-standard residue; d: D form. ξ: configuration not given here. NMehCys = CN[C@@H](CCS)C(=O)O; Thr(3ξ) = CC(O)[C@H](N)C(=O)O
Give just the number in nM; leave the unit off.

C[C@@H](O)[C@@H]1NC(=O)[C@H](CCCCN)NC(=O)[C@@H](Cc2c[nH]c3ccccc23)NC(=O)[C@H](Cc2ccc(O)cc2)NC(=O)[C@H](CCSCC(=O)NC[C@H](N)C(=O)N[C@@H](CCN)C(=O)N[C@@H](CS)C(=O)N[C@H](CO)[C@@H](C)O)N(C)C(=O)[C@H](Cc2ccccc2)NC1=O: 0.642
CC(O)[C@@H]1NC(=O)[C@H](CCCCN)NC(=O)[C@@H](Cc2c[nH]c3ccccc23)NC(=O)[C@H](Cc2ccc(O)cc2)NC(=O)[C@H](CCS)N(C)C(=O)[C@H](Cc2ccccc2)NC1=O (stereo partly drawn) [cyclo-YWDKTF.(N—CH3).Hcy., cyclo-Tyr-D-Trp-Lys-Thr-Phe-(N—CH3)Hcy] (cyclo(F[NMehCys]Y[dW]K[Thr(3ξ)])): 0.21

Here's the next entry for you.
Lab book: IC50 of "C[C@@H](O)[C@H](NC(=O)[C@H](CS)NC(=O)[C@H](Cc1ccc(N)cc1)NC(=O)[C@@H](N)CNC(=O)CSCC[C@H]1C(=O)N[C@@H](Cc2ccc(O)cc2)C(=O)N[C@H](Cc2c[nH]c3ccccc23)C(=O)N[C@@H](CCCCN)C(=O)N[C@@H]([C@@H](C)O)C(=O)N[C@@H](Cc2ccccc2)C(=O)N1C)C(=O)O" noted as 0.641
